// data source = ChEMBL document CHEMBL4270554

ASSAY_COMMENT: Intrinsic clearance in pooled male rat liver microsomes assessed per mg protein at 3 uM preincubated for 5 mins followed by NADPH addition measured after 45 mins by LC-MS/MS method
Format: ADME, microsome
CONDITION_SUMMARY: read-out: CLH
EXPERIMENTAL_READOUT: microsomal CLint at 3 µM

Examples with answers:
smi=N#C/C(=C\c1cccc2cnccc12)c1c[nH]c2ccccc12 experimental_readout="microsomal CLint at 3 µM" reported_measurement="299 µL/min/mg"
smi=COc1ccc2[nH]cc(/C(C#N)=C/c3cccc4cnccc34)c2c1 experimental_readout="microsomal CLint at 3 µM" reported_measurement="106 µL/min/mg"

Entry N#C/C(=C\c1cccc2cnccc12)c1c[nH]c2ccc(Br)cc12 : reported microsomal CLint at 3 µM = ? 118 µL/min/mg

* * *

ASSAY_COMMENT: Half life in pooled male rat liver microsomes at 3 uM preincubated for 5 mins followed by NADPH addition measured after 45 mins by LC-MS/MS method
Type: ADME, microsome
// half-life at 3 µM lookup, one value per entry
Return type: number; implicit unit min.

Reference set (2 entries):
smi=N#C/C(=C\c1cccc2cnccc12)c1c[nH]c2ccc(Br)cc12 experimental_readout="half-life at 3 µM" reported_measurement=19.6
smi=COc1ccc2[nH]cc(/C(C#N)=C/c3cccc4cnccc34)c2c1 experimental_readout="half-life at 3 µM" reported_measurement=21.8

Could you now look at the following molecule, please?
Any idea what its half-life at 3 µM is? The molecule is N#C/C(=C\c1cccc2cnccc12)c1c[nH]c2ccccc12 7.7

* * *

ASSAY_COMMENT: Solubility of the compound in 10% NMP/50% PEG400/40% water at pH 3.5 by HPLC analysis
Assay type: physicochemical
EXPERIMENTAL_READOUT: solubility (µg/mL)
Form entry: value (µg/mL) — number only.

I would be grateful if you could share the reported solubility for Cl.N#C/C(=C\c1cccc2cnccc12)c1c[nH]c2ccccc12 . 1220

* * *

ASSAY_COMMENT: Antiproliferative activity against human WI38 cells after 72 hrs by MTT assay
Assay type: cell-based
CONDITION_SUMMARY: WI-38 cells
EXPERIMENTAL_READOUT: GI50 at 72 h (µM)
Numeric only. Scale: µM

Item N#C/C(=C\c1cccc2cnccc12)c1c[nH]c2ccccc12 has what recorded GI50 at 72 h? 3.4

* * *

ASSAY_COMMENT: Terminal half life in Wistar rat at 2 mg/kg, iv by LC-MS/MS analysis
Type: ADME, organism-based
CONDITION_SUMMARY: in vivo, read-out: beta t1/2 (converted)
EXPERIMENTAL_READOUT: half-life (min)
Supply the numeric figure in min, leaving out any unit text.

Look up half-life: Cl.N#C/C(=C\c1cccc2cnccc12)c1c[nH]c2ccccc12 21.6

* * *

Tested on: hTERT-BJ
ASSAY_COMMENT: Inhibition of mitotic progression in human hTERT-BJ cells transformed with hTert, small t, shRNAs against p53 and pRb and H-RasV12-ER assessed as increase in phosphorylated histone H3 (Ser10) level at 5 uM after 24 hrs by immunoblot analysis relative to control
Type: functional
Quick list: fold change (FC) per entry.
Simply state the number, no unit and no words.

smi=N#C/C(=C\c1cccc2cccnc12)c1c[nH]c2ccccc12 reported_measurement=1.3
smi=N#C/C(=C\c1cccc2cnccc12)c1n[nH]c2ccccc12 reported_measurement=1.4
smi=N#C/C(=C/c1cccc2cnccc12)c1nc2ccccc2[nH]1 reported_measurement=1.1
smi=C(=C\c1c[nH]c2ccccc12)/c1cccc2cnccc12 reported_measurement=1.3
smi=N#C/C(=C\c1cccnc1)c1c[nH]c2ccccc12 reported_measurement=1.2

Could you share which fold change (FC) value was measured for N#C/C(=C\c1cccc2cnccc12)c1c[nH]c2cc(CN3CCCC3)ccc12 ? 1.1

Any idea what fold change (FC) was measured for N#C/C(=C\c1cccc2cnccc12)c1c[nH]c2ccc(F)cc12 ? 0.9

Which fold change (FC) value belongs to O=C(Nc1cccc2cnccc12)c1c[nH]c2ccccc12 ? 1.4

Bench note: what fold change (FC) did N#C/C(=C\c1cccc2ccncc12)c1c[nH]c2ccccc12 show? 1.5

Which fold change (FC) is listed for N#C/C(=C\c1cccc2ncccc12)c1c[nH]c2ccccc12 ? 10.5

Field request: fold change (FC) | item: N#C/C(=C\c1cccc2cnccc12)c1c[nH]c2cccc(Br)c12 1.1
